- Test system: CCRF-CEM leukemia
- assay_method_text: NCI-60 one-dose screen, 48 h (100 = growth as untreated, 0 = no growth, -100 = all killed)
- run_parameters: 10 µM
About 83,000 compounds went through this panel and 20% of them were active in at least one assay; those are over-represented in the sample as a whole. Calls of active or inactive are those of the source. How the source made its calls: active means growth percent below 10; inactive means the rest.
Would you kindly list growth for each of these compounds?

Example cases with answers are listed next.
1. Oc1ccc(Br)cc1/C=N/NC(=S)NC12CC3CC(CC(C3)C1)C2: -21.1% (active)
2. Cc1ncc(C(=O)Nc2ccc(CN3CCN(C)CC3)c(C(F)(F)F)c2)cc1C#Cc1cnc(NC2CC2)c2ncccc12: -43% (active)
3. Oc1ccc(N=Nc2ccc(N=Nc3ccccc3)cc2)cc1: 6.69% (active)
4. O=c1[nH]c(=S)[nH]c(O)c1/C=C1\C=Nc2ccccc21: 4.02% (active)
5. COc1cc(CCNc2cnc3cc(N)cc(N)c3n2)cc(OC)c1: -52.5% (active)
6. Cc1cc2c(-c3nc4ccccc4n3C)c(O)c(O)cc2c(O)c1-c1c(C)cc2c(-c3nc4ccccc4n3C)c(O)c(O)cc2c1O: 20.5% (inactive)
7. S=C(N/N=C/c1cc(Cl)cc(Cl)c1)NC12CC3CC(CC(C3)C1)C2: 50.8% (inactive)
8. COCn1c(C(=O)OC)cc2oc(/C=C3/SC(=S)N(N)C3=O)cc21: 98.1% (inactive)

Batch of 3 compounds: report growth for each.
1. Cc1ccc(C(=O)NN)cc1
2. N=C(N)c1ccc(-c2ccc(-c3ccc(F)cc3)s2)cc1
3. Cc1nc2c(nnn2-c2ccccc2)c2nc(-c3ccccc3)oc(=O)c12

**A:**
["99.5% (inactive)", "-62% (active)", "111% (inactive)"]

Batch of 2 compounds: report growth for each.
1. O=C1OC(c2ccc(-c3ccccc3)cc2)=C/C1=C/c1c2ccccc2cc2ccccc12
2. N=C(N)N=Nc1ccc(NN=C(N)N)c2ccccc12

**A:**
1: 69.9% (inactive); 2: 101% (inactive)

---

Would you kindly list growth for each of these molecules?
- Tested on: SNB-75 CNS
- assay_method_text: NCI-60 one-dose screen, 48 h (100 = growth as untreated, 0 = no growth, -100 = all killed)
- run_parameters: 10 µM unless noted
Compounds without any hit were thinned out: in the full panel of roughly 83,000, 20% have a hit. The source made the active and inactive calls. The calls were made as follows: active = growth percent below 10; inactive = the rest.

Example cases with answers are listed next.
1) COc1cc2oc(-c3ccc(NC(=O)c4ccccc4)cc3)cc(=O)c2c(OC)c1OC: 81% (inactive)
2) CC(Br)c1nc2ccccc2cc1C(N)=O (configuration not stated): 88.3% (inactive)
3) CCCCCCCCCC[N+](C)(C)N: 78.9% (inactive)
4) CCOC(=O)C1=C(C(F)(F)F)NC(=S)NC1CN1C(=O)c2ccccc2C1=O (configuration not stated): 104% (inactive)
5) COc1ccc(/C=C2\SC(=O)N(Cc3cc(=O)oc4ccc(OC)cc34)C2=O)cc1: 74.3% (inactive)
6) CCCCCCCCC(=O)Nc1ccc(O)cc1: 76.8% (inactive)

Please find the next molecule below.
**Q:** Fill blank: measured growth of the molecule COc1ccc(C2=NN(C(=O)c3cc(-c4ccc(C)cc4)nc4ccccc34)C(c3cc(-c4ccccc4)nn3-c3ccccc3)C2)cc1 (configuration not stated) is ____.
**A:** 88.3% (inactive)

Source of measurements: PubChem BioAssay (NCI)
